target: Alpha-bungarotoxin (Bungarus multicinctus)
assay info: alpha-bungarotoxin binders on microarray, profiling panel, artefact control for SMM control protein annotation, biochemical, small-molecule microarray, Alexa647 label, 635/667 nm fluorescence (AID 1117)
stated conditions: alpha-BTX-A647 binding fluorescence, higher = more signal
# key: entry, value: composite z-score
API note: the answer field is a bare number with no unit suffix.

Illustrative cases are given below, each with its answer.
COCCCNC(=O)[C@]1(Cc2ccccc2CN=[N+]=[N-])N=C(c2ccc(OCCCO)cc2)O[C@@H]1c1ccccc1N=[N+]=[N-]    2.35
COCCOC(=O)N1C(=O)[C@@]2(c3cc(C#CCNC(N)=O)ccc31)[C@H](C(N)=O)[C@H]1C(=O)O[C@H](c3ccccc3)[C@H](c3ccccc3)N1[C@@H]2c1ccc(O)cc1    -0.285

Pending compound:
stdin: # input compound: `C[C@]1(C(=O)NCC(F)(F)F)c2ccccc2C(=O)N(Cc2cc(C(F)(F)F)cc(C(F)(F)F)c2)[C@H]1c1ccc(CO)cc1` ; wanted: its composite z-score
stdout: 0.342

###

assay info: E. coli DRC41 culture turbidity changes, primary screen, E. coli filamentation inducer project, strain DRC41, OD650, 48 h (AID 1152);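 further: E. coli MC1000 strain DRC41 lacking acrAB efflux pump and sulA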
stated conditions: E. coli DRC41 (acrAB sulA), higher = more signal, called active from +8 up or from −8 down
# z-score annotations
# output: bare number, no unit

Please review the following examples before continuing.
C=C[C@H](OC)[C@@H](O)c1ccc(OC)c(O)c1    0.169
C[C@]1(C(=O)O)c2ccccc2C(=O)N(Cc2cc(C(F)(F)F)cc(C(F)(F)F)c2)[C@H]1c1ccc(CO)cc1    -0.485
COc1ccc(NN2C(C(O)c3ccccc3)C=CC3C(=O)N(C4CCCCC4)C(=O)C32)cc1 (stereo not drawn)    -0.775
[N-]=[N+]=NCc1ccccc1C[C@@]1(C(N)=O)N=C(c2ccc(OCCCO)cc2)O[C@@H]1c1ccccc1N=[N+]=[N-]    -1.04
[N-]=[N+]=NCc1ccccc1C[C@@]1(C(=O)NCCN2CCOCC2)N=C(c2ccc(OCCCO)cc2)O[C@@H]1c1ccccc1    -1.58

stdin: Which measured z-score value corresponds to `COCCCNC(=O)[C@@]1(CCC(=O)OC(C)(C)C)N=C(c2ccc(OCCCO)cc2)O[C@H]1c1ccccc1` ?
stdout: 1.41

stdin: Would you mind telling me what z-score value was observed for CCCCN1CC=CC23O[C@@H]4/C=C\CCCOC(=O)C4[C@H]2C(=O)N(CCCCCCO)[C@@H]3C1=O (stereo partly drawn) ?
stdout: 2.36

stdin: # get_value(readout='z-score', item= CC1(C)OB(/C=C\CC(OC(=O)c2ccncc2)c2ccccc2)OC1(C)C (stereo not drawn) )
stdout: -0.318

###

Measured composite z-score of individual entries
target: Calmodulin-1 (Homo sapiens) (UniProt P0DP23)
assay info: CALM1 binders on microarrays, EGTA buffer, profiling panel, biochemical, small-molecule microarray, Cy5-labelled CALM1 (AID 1111);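 further: labelled calmodulin applied in Tris saline Tween buffer holding calcium plus EGTA and DTT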
stated conditions: Cy5-CALM1 binding fluorescence, higher = more signal
Give only the figure.

Solved cases below.
COC(=O)[C@H](Cc1ccccc1)N1CC(C)(OC)O[C@@H](Cc2ccccc2)[C@H]1/C=C/C1CC1 (some centres not stated)    -0.0441
Cc1c(NC(=O)/C(C#N)=C/C=C/c2ccc([N+](=O)[O-])cc2)c(=O)n(-c2ccccc2)n1C    1.97
COCCOC(=O)N1C(=O)[C@@]2(c3cc(C#CCC(C(=O)OC)C(=O)OC)ccc31)[C@H](C(=O)N1CCc3cc(OC)c(OC)cc3C1)[C@H]1C(=O)O[C@H](c3ccccc3)[C@H](c3ccccc3)N1[C@@H]2c1ccccc1OCCO    0.965

stdin: Which composite z-score value is on record for CN1C(=O)C2CC=C(C3=CCO[C@@H]3[C@H]3CCCN3S(=O)(=O)c3ccccc3[N+](=O)[O-])CC2C1=O (some centres not stated) ?
stdout: -0.194

stdin: I would be grateful if you could share the reported composite z-score for `C=CCNC(=O)[C@@H]1[C@H]2C(=O)O[C@H](c3ccccc3)[C@H](c3ccccc3)N2[C@H](c2ccc(OCCO)cc2)[C@@]12C(=O)Nc1ccc(C#CCNC(N)=O)cc12` .
stdout: 1.47

stdin: Quick one: composite z-score for `CC(C)[Si](C#Cc1ccccc1)(O[C@H](c1ccccc1)c1cn(Cc2ccccc2)nn1)C(C)C` ?
stdout: -0.49

stdin: Give its composite z-score value. Item: `CN(C)C(=O)[C@]1(CCS(=O)(=O)c2ccccc2)N=C(c2ccc(OCCCO)cc2)O[C@@H]1c1ccccc1CN=[N+]=[N-]`
stdout: 1.98

stdin: Consider the compound `C=CC[C@@]1(C(=O)NCCCOC)N=C(c2ccc(OCCCO)cc2)O[C@@H]1c1ccccc1CN=[N+]=[N-]` and give its measured composite z-score.
stdout: 1.66

stdin: Given `CCCCC(=C=CC[C@@H](O)c1ccccc1OCCO)C[C@@H](O)c1ccccn1` , state its recorded composite z-score.
stdout: -0.408

All figures here come from PubChem BioAssay.
